Would you mind telling me the reported IC50 of each entry?
Test system: SUM149PT spheroids with HUVEC/MSC, viability
Assay: Anticancer human tumor SUM149PT cell line growth inhibition [GQUAD];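 note: spheroids exposed to drugs for seven days before readout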
Conditions: curve of first compound; second compound 0.316 µM
Text: DNA G-quadruplex Stabilizer Agents in Combinations in Complex Spheroids A high-throughput screen of multi-cell type tumor spheroids was designed to identify active combinations of DNA G-quadruplex stabilizer agents and targeted small molecules. […] Compounds. […] If the clinical Cmax for an agent had not been determined, the highest concentration tested was 10 microM. […]
One number for each entry, in nM.

Below are worked cases with known answers.
Cc1[nH]c2ccccc2c1CCNCc1ccc(/C=C/C(=O)NO)cc1 + CN(C)c1ccc(Nc2c3ccc(NC(=O)CCN4CCCC4)cc3nc3cc(NC(=O)CCN4CCCC4)ccc23)cc1 = 231
CC(C)(O)C1CCC(Nc2ccc3ncc(-c4cccc(C(F)(F)F)c4)n3n2)CC1 (stereo unspecified) + Cc1[nH]c2ccc(F)cc2c1-c1nc2c3cccnc3c3ncccc3c2[nH]1 = 3810
C#Cc1c(F)ccc2cc(O)cc(-c3ncc4c(N5CC6CCC(C5)N6)nc(OCC56CCCN5CC(F)C6)nc4c3F)c12 (stereo unspecified) + Cc1[nH]c2ccc(F)cc2c1-c1nc2c3cccnc3c3ncccc3c2[nH]1 = 3770

Batch lookup, IC50 per entry.
1. CC1COCCN1c1cc(-c2ccnn2C)c2ccnc(-c3ccn[nH]3)c2n1 (stereo unspecified) + CN(C)c1ccc(Nc2c3ccc(NC(=O)CCN4CCCC4)cc3nc3cc(NC(=O)CCN4CCCC4)ccc23)cc1
2. COc1ccc([C@@H](O)c2cc(-c3ncnc4cc(N5CCOCC5)ccc34)c(F)cc2Cl)nn1 + CN(C)c1ccc(Nc2c3ccc(NC(=O)CCN4CCCC4)cc3nc3cc(NC(=O)CCN4CCCC4)ccc23)cc1
3. CC(C)(O)C1CCC(Nc2ccc3ncc(-c4cccc(C(F)(F)F)c4)n3n2)CC1 (stereo unspecified) + Cc1cnc(CNC(=O)c2c(=O)c3ccc(N4CCCN(C)CC4)nc3n3c2sc2ccccc23)cn1

Output:
1. 91.3
2. 1160
3. 349

Batch lookup, IC50 per entry.
1. CC1COCCN1c1cc(C2(S(C)(=N)=O)CC2)nc(-c2ccnc3[nH]ccc23)n1 (stereo unspecified) + Cc1[nH]c2ccc(F)cc2c1-c1nc2c3cccnc3c3ncccc3c2[nH]1
2. CC[C@@]1(O)C(=O)OCc2c1cc1n(c2=O)Cc2cc3c(CN(C)C)c(O)ccc3nc2-1 + Cc1[nH]c2ccc(F)cc2c1-c1nc2c3cccnc3c3ncccc3c2[nH]1
3. CC1COCCN1c1cc(-c2ccnn2C)c2ccnc(-c3ccn[nH]3)c2n1 (stereo unspecified) + Cc1[nH]c2ccc(F)cc2c1-c1nc2c3cccnc3c3ncccc3c2[nH]1
4. CC1COCCN1c1cc(C2(S(C)(=N)=O)CC2)nc(-c2ccnc3[nH]ccc23)n1 (stereo unspecified) + Cc1cnc(CNC(=O)c2c(=O)c3ccc(N4CCCN(C)CC4)nc3n3c2sc2ccccc23)cn1
5. COc1ccc([C@@H](O)c2cc(-c3ncnc4cc(N5CCOCC5)ccc34)c(F)cc2Cl)nn1 + Cc1[nH]c2ccc(F)cc2c1-c1nc2c3cccnc3c3ncccc3c2[nH]1
6. COc1ccc([C@@H](O)c2cc(-c3ncnc4cc(N5CCOCC5)ccc34)c(F)cc2Cl)nn1 + Cc1cnc(CNC(=O)c2c(=O)c3ccc(N4CCCN(C)CC4)nc3n3c2sc2ccccc23)cn1
7. C=CCn1c(=O)c2cnc(Nc3ccc(N4CCN(C)CC4)cc3)nc2n1-c1cccc(C(C)(C)O)n1 + CN(C)c1ccc(Nc2c3ccc(NC(=O)CCN4CCCC4)cc3nc3cc(NC(=O)CCN4CCCC4)ccc23)cc1
8. Cc1[nH]c2ccccc2c1CCNCc1ccc(/C=C/C(=O)NO)cc1 + Cc1cnc(CNC(=O)c2c(=O)c3ccc(N4CCCN(C)CC4)nc3n3c2sc2ccccc23)cn1

Output:
1. 2830
2. 80.2
3. 107
4. 97.9
5. 1130
6. 61.1
7. 155
8. 56
